- System under test: Savinase Ultra 16.0L (Lederbergia lenta)
- Construct: purchased Sigma-Aldrich
- Sequence (P29600 1-269): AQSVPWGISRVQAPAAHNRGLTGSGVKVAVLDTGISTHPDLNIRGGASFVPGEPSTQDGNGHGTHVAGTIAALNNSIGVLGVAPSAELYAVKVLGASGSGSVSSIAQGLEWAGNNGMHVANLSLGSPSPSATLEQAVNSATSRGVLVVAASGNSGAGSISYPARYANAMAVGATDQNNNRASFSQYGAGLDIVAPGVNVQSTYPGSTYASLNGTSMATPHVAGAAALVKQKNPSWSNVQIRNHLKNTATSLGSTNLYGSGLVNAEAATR
- Assay protocol: protease storage stability in liquid formulation (Suc-AAPF-pNA substrate)
- Assay type: biochemical
- Protocol conditions: base formulation V., 2.0 wt % component (a), storage at 37° C., 28 d
Result type: protease activity, referring to reference formulation at time 0
Answer with the value's number alone.

Prompt: // returns reported protease activity, referring to reference formulation at time 0 for input CCCOC(=O)CC(O)(CC(=O)OCCC)C(=O)OCCC [A.2, Tripropylcitrate]
Completion: 77

Prompt: Consider the molecule shown here: CCOC(=O)CC(O)(CC(=O)OCC)C(=O)OCC [A.1, Triethylcitrate] What is its recorded protease activity, referring to reference formulation at time 0?
Completion: 75

Prompt: Param item = CCCCOC(=O)CC(CC(=O)OCCCC)(OC(C)=O)C(=O)OCCCC [A.4, Acetyltributylcitrate] ; retrieve measured protease activity, referring to reference formulation at time 0.
Completion: 76

Prompt: What does the data say about its protease activity, referring to reference formulation at time 0? Entry: O=C(CC(O)(CC(=O)OCc1ccccc1)C(=O)OCc1ccccc1)OCc1ccccc1 [A.8, Tribenzylcitrate]
Completion: 77

###

Kindly supply the reported protease activity, referring to reference formulation at time 0 values for the records listed here.
- System under test: Savinase Ultra 16.0L (Lederbergia lenta, UniProt P29600)
- Construct: purchased Sigma-Aldrich
- Assay protocol: protease storage stability in liquid formulation (Suc-AAPF-pNA substrate)
- Type: biochemical
- Protocol conditions: base formulation V., 2.0 wt % component (a), storage at 37° C., 14 d
- Method: Base test formulations were manufactured by making base formulations I to V by mixing the components according to Table 1. Protease used: (S) Savinase Ultra 16.0L (CAS-No. 9014-01-1, EC-No. 232-752-2) was purchased from Sigma-Aldrich […] The proteolytic activity values provided in Table 3 were calculated referring to the value determined in the reference formulation at the time 0. […]
The response must contain the number and no unit.

Prompt: Request the reported protease activity, referring to reference formulation at time 0 associated with CCCOC(=O)CC(O)(CC(=O)OCCC)C(=O)OCCC [A.2, Tripropylcitrate]
Completion: 87

Prompt: Fill in the blank: the reported protease activity, referring to reference formulation at time 0 of CCOC(=O)CC(O)(CC(=O)OCC)C(=O)OCC [A.1, Triethylcitrate] is ____.
Completion: 85

Prompt: Quick one: protease activity, referring to reference formulation at time 0 for CCCCOC(=O)CC(CC(=O)OCCCC)(OC(C)=O)C(=O)OCCCC [A.4, Acetyltributylcitrate] ?
Completion: 85

Prompt: If you can, please state the reported protease activity, referring to reference formulation at time 0 value of O=C(CC(O)(CC(=O)OCc1ccccc1)C(=O)OCc1ccccc1)OCc1ccccc1 [A.8, Tribenzylcitrate] .
Completion: 86

###

- System under test: Savinase Ultra 16.0L (Lederbergia lenta, UniProt P29600)
- Construct: purchased Sigma-Aldrich
- Sequence (P29600 1-269): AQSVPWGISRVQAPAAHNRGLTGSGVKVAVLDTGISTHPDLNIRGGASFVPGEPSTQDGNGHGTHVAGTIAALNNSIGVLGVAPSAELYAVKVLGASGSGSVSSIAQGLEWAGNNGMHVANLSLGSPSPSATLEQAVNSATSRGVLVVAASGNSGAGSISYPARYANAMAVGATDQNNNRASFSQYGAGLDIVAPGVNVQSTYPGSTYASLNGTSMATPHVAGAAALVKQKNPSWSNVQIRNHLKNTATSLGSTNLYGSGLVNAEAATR
- Assay protocol: protease storage stability in liquid formulation (Suc-AAPF-pNA substrate)
- Type: biochemical
- Protocol conditions: base formulation V., 2.0 wt % component (a), storage at 37° C., 7 d
Result type: protease activity, referring to reference formulation at time 0

Prompt: Entry under review: CCCOC(=O)CC(O)(CC(=O)OCCC)C(=O)OCCC [A.2, Tripropylcitrate] . Reported protease activity, referring to reference formulation at time 0?
Completion: 92

Prompt: I'd like to know its protease activity, referring to reference formulation at time 0. The compound in question is O=C(CC(O)(CC(=O)OCc1ccccc1)C(=O)OCc1ccccc1)OCc1ccccc1 [A.8, Tribenzylcitrate]
Completion: 92

Prompt: Given the compound CCOC(=O)CC(O)(CC(=O)OCC)C(=O)OCC [A.1, Triethylcitrate] , what is its reported protease activity, referring to reference formulation at time 0?
Completion: 90

Prompt: Find the recorded protease activity, referring to reference formulation at time 0 belonging to CCCCOC(=O)CC(CC(=O)OCCCC)(OC(C)=O)C(=O)OCCCC [A.4, Acetyltributylcitrate] and report it.
Completion: 90
